The reported measurements were obtained from patent US20260274798A1.

ASSAY_NOTES: Approximate solvent solubility screen of Compound A diacetate salt in 18 solvent systems
Assay type: physicochemical
TEST_CONDITIONS: organic solvent or mixture, thermodynamic from solid; Acetone; lyophilized material, ambient to ca. 40° C.; read-out: Approximate Solvent Solubility
Procedure: Approximately 380 mg of Form 1 was dissolved in 35 mL of methanol and rotary evaporated. […] A sub-sample was taken for further characterization (TG/DSC, ^1H NMR and PLM). The crystalline material isolated post rotary-evaporation was re-dissolved in 27 mL of water. […] The solids were then isolated via centrifugal filtration and analyzed by XRPD. […] Any solids recovered post-evaporation were then analyzed by XRPD.
MEASUREMENT_TYPE: solubility

GET /value?item= CC(=O)O.CC(=O)O.N=C(N)c1ccc(OCCCCCOc2ccc(C(=N)N)nc2)cc1 [Compound A diacetate salt] &field=solubility returns ≤ 5000 µg/mL

###

ASSAY_NOTES: Approximate solvent solubility screen of Compound A diacetate salt in 18 solvent systems
Format: physicochemical
TEST_CONDITIONS: organic solvent or mixture, thermodynamic from solid; Ethyl Acetate; lyophilized material, ambient to ca. 40° C.; read-out: Approximate Solvent Solubility
MEASUREMENT_TYPE: solubility

GET /value?item= CC(=O)O.CC(=O)O.N=C(N)c1ccc(OCCCCCOc2ccc(C(=N)N)nc2)cc1 [Compound A diacetate salt] &field=solubility returns ≤ 5000 µg/mL

###

ASSAY_NOTES: 7 Day Stability Assessment (XRPD form and HPLC purity after storage)
Assay type: physicochemical
TEST_CONDITIONS: 40° C./75% RH, 1 week (Form 1: 2 and 7 days); diacetate
MEASUREMENT_TYPE: one-week stability: form by XRPD

COMPOUND: CC(=O)O.CC(=O)O.N=C(N)c1ccc(OCCCCCOc2ccc(C(=N)N)nc2)cc1 [Form 8]
REPORTED: convert to Form 1
--
COMPOUND: CC(=O)O.CC(=O)O.N=C(N)c1ccc(OCCCCCOc2ccc(C(=N)N)nc2)cc1 [Form 3]
REPORTED: convert to Form 1

###

ASSAY_NOTES: Approximate solvent solubility screen of Compound A diacetate salt in 18 solvent systems
Assay type: physicochemical
TEST_CONDITIONS: organic solvent or mixture, thermodynamic from solid; Methylethyl Ketone; lyophilized material, ambient to ca. 40° C.; read-out: Approximate Solvent Solubility
MEASUREMENT_TYPE: solubility

GET /value?item= CC(=O)O.CC(=O)O.N=C(N)c1ccc(OCCCCCOc2ccc(C(=N)N)nc2)cc1 [Compound A diacetate salt] &field=solubility returns ≤ 5000 µg/mL

###

ASSAY_NOTES: Approximate solvent solubility screen of Compound A diacetate salt in 18 solvent systems
Type: physicochemical
TEST_CONDITIONS: organic solvent or mixture, thermodynamic from solid; 2-Propanol; lyophilized material, ambient to ca. 40° C.; read-out: Approximate Solvent Solubility
MEASUREMENT_TYPE: solubility

GET /value?item= CC(=O)O.CC(=O)O.N=C(N)c1ccc(OCCCCCOc2ccc(C(=N)N)nc2)cc1 [Compound A diacetate salt] &field=solubility returns ≤ 5000 µg/mL

###

ASSAY_NOTES: Thermodynamic solubility in water and a pH 7.4 phosphate buffer
Type: physicochemical
TEST_CONDITIONS: water, thermodynamic from solid; slurry agitated at ambient ca. 24 hours, HPLC
MEASUREMENT_TYPE: solubility at 24 h (mg/mL)
Write the number in mg/mL without appending the unit.

GET /value?item= CC(=O)O.CC(=O)O.N=C(N)c1ccc(OCCCCCOc2ccc(C(=N)N)nc2)cc1 [Form 1] &field=solubility at 24 h returns 49.5

###

ASSAY_NOTES: Approximate solvent solubility screen of Compound A diacetate salt in 18 solvent systems
Format: physicochemical
TEST_CONDITIONS: organic solvent or mixture, thermodynamic from solid; Methanol; lyophilized material, ambient to ca. 40° C.; read-out: Approximate Solvent Solubility
MEASUREMENT_TYPE: solubility (mg/mL)
Write the number in mg/mL without appending the unit.

GET /value?item= CC(=O)O.CC(=O)O.N=C(N)c1ccc(OCCCCCOc2ccc(C(=N)N)nc2)cc1 [Compound A diacetate salt] &field=solubility returns 20

###

ASSAY_NOTES: Approximate solvent solubility screen of Compound A diacetate salt in 18 solvent systems
Type: physicochemical
TEST_CONDITIONS: organic solvent or mixture, thermodynamic from solid; 1,4-Dioxane; lyophilized material, ambient to ca. 40° C.; read-out: Approximate Solvent Solubility
MEASUREMENT_TYPE: solubility

GET /value?item= CC(=O)O.CC(=O)O.N=C(N)c1ccc(OCCCCCOc2ccc(C(=N)N)nc2)cc1 [Compound A diacetate salt] &field=solubility returns ≤ 5000 µg/mL

###

Exercise: state measured solubility for each of the compounds provided.
ASSAY_NOTES: Thermodynamic solubility in water and a pH 7.4 phosphate buffer
Format: physicochemical
TEST_CONDITIONS: pH 7.4 Phosphate Buffer; slurry agitated at ambient ca. 24 hours, HPLC; diacetate
Write the number in µg/mL without appending the unit.

GET /value?item= CC(=O)O.CC(=O)O.N=C(N)c1ccc(OCCCCCOc2ccc(C(=N)N)nc2)cc1 [Form 1] &field=solubility returns 300

GET /value?item= CC(=O)O.CC(=O)O.N=C(N)c1ccc(OCCCCCOc2ccc(C(=N)N)nc2)cc1 [Form 8] &field=solubility returns 300

GET /value?item= CC(=O)O.CC(=O)O.N=C(N)c1ccc(OCCCCCOc2ccc(C(=N)N)nc2)cc1 [Form 9] &field=solubility returns 300

GET /value?item= CC(=O)O.CC(=O)O.N=C(N)c1ccc(OCCCCCOc2ccc(C(=N)N)nc2)cc1 [Form 3] &field=solubility returns 200

###

ASSAY_NOTES: Approximate solvent solubility screen of Compound A diacetate salt in 18 solvent systems
Format: physicochemical
TEST_CONDITIONS: all solvents investigated except methanol and water, organic solvent or mixture, thermodynamic from solid; read-out: solubility
MEASUREMENT_TYPE: solubility

GET /value?item= CC(=O)O.CC(=O)O.N=C(N)c1ccc(OCCCCCOc2ccc(C(=N)N)nc2)cc1 [Compound A diacetate salt] &field=solubility returns < 5000 µg/mL

###

ASSAY_NOTES: Approximate solvent solubility screen of Compound A diacetate salt in 18 solvent systems
Assay type: physicochemical
TEST_CONDITIONS: organic solvent or mixture, thermodynamic from solid; Tetrahydrofuran; lyophilized material, ambient to ca. 40° C.; read-out: Approximate Solvent Solubility
MEASUREMENT_TYPE: solubility

GET /value?item= CC(=O)O.CC(=O)O.N=C(N)c1ccc(OCCCCCOc2ccc(C(=N)N)nc2)cc1 [Compound A diacetate salt] &field=solubility returns ≤ 5000 µg/mL

###

ASSAY_NOTES: Approximate solvent solubility screen of Compound A diacetate salt in 18 solvent systems
Assay type: physicochemical
TEST_CONDITIONS: organic solvent or mixture, thermodynamic from solid; Dimethylsulfoxide; lyophilized material, ambient to ca. 40° C.; read-out: Approximate Solvent Solubility
MEASUREMENT_TYPE: solubility

GET /value?item= CC(=O)O.CC(=O)O.N=C(N)c1ccc(OCCCCCOc2ccc(C(=N)N)nc2)cc1 [Compound A diacetate salt] &field=solubility returns ≤ 5000 µg/mL

###

ASSAY_NOTES: Approximate solvent solubility screen of Compound A diacetate salt in 18 solvent systems
Assay type: physicochemical
TEST_CONDITIONS: organic solvent or mixture, thermodynamic from solid; Dichloromethane; lyophilized material, ambient to ca. 40° C.; read-out: Approximate Solvent Solubility
MEASUREMENT_TYPE: solubility

GET /value?item= CC(=O)O.CC(=O)O.N=C(N)c1ccc(OCCCCCOc2ccc(C(=N)N)nc2)cc1 [Compound A diacetate salt] &field=solubility returns ≤ 5000 µg/mL

###

ASSAY_NOTES: Approximate solvent solubility screen of Compound A diacetate salt in 18 solvent systems
Assay type: physicochemical
TEST_CONDITIONS: organic solvent or mixture, thermodynamic from solid; N-Methylpyrrolidone; lyophilized material, ambient to ca. 40° C.; read-out: Approximate Solvent Solubility
MEASUREMENT_TYPE: solubility

GET /value?item= CC(=O)O.CC(=O)O.N=C(N)c1ccc(OCCCCCOc2ccc(C(=N)N)nc2)cc1 [Compound A diacetate salt] &field=solubility returns ≤ 5000 µg/mL

###

ASSAY_NOTES: Approximate solvent solubility screen of Compound A diacetate salt in 18 solvent systems
Format: physicochemical
TEST_CONDITIONS: organic solvent or mixture, thermodynamic from solid; Acetonitrile; lyophilized material, ambient to ca. 40° C.; read-out: Approximate Solvent Solubility
MEASUREMENT_TYPE: solubility

GET /value?item= CC(=O)O.CC(=O)O.N=C(N)c1ccc(OCCCCCOc2ccc(C(=N)N)nc2)cc1 [Compound A diacetate salt] &field=solubility returns ≤ 5000 µg/mL

###

ASSAY_NOTES: Approximate solvent solubility screen of Compound A diacetate salt in 18 solvent systems
Format: physicochemical
TEST_CONDITIONS: organic solvent or mixture, thermodynamic from solid; N,N′-Dimethylacetamide; lyophilized material, ambient to ca. 40° C.; read-out: Approximate Solvent Solubility
Procedure: Approximately 380 mg of Form 1 was dissolved in 35 mL of methanol and rotary evaporated. […] A sub-sample was taken for further characterization (TG/DSC, ^1H NMR and PLM). The crystalline material isolated post rotary-evaporation was re-dissolved in 27 mL of water. […] The solids were then isolated via centrifugal filtration and analyzed by XRPD. […] Any solids recovered post-evaporation were then analyzed by XRPD.
MEASUREMENT_TYPE: solubility

GET /value?item= CC(=O)O.CC(=O)O.N=C(N)c1ccc(OCCCCCOc2ccc(C(=N)N)nc2)cc1 [Compound A diacetate salt] &field=solubility returns ≤ 5000 µg/mL
